Test system: NOMO1
Measurement Description: cell viability relative to DMSO control; higher = less cytotoxic
Settings: HPLM + 10% dialyzed FBS; 48 h; 0.00702 µM
Exercise: for every item that follows, state its recorded cell viability.
# output: bare number, implied unit %

IN: Provide measured cell viability value, entry: O=C1c2c(O)cccc2[C@H]([C@@H]2O[C@H](CO)[C@@H](O)[C@H](O)[C@H]2O)c2cc(CO)cc(O)c21
OUT: 97.9

IN: Provide cell viability value for the following compound: COCCOC(=O)C/1=C(C)/NC/2=C(C1C3=CC=CC(=C3)O)/C(=O)CC(C2)C4=C(OC)C=CC=C4 (centres undefined)
OUT: 93.2

IN: Could you please provide reported cell viability for CCCCCCCCCCCC(CC1OC(=O)C1CCCCCC)OC(=O)C(CC(C)C)NC=O (centres undefined) ? Thanks!
OUT: 100

IN: Please give the documented cell viability of COc1cc2ncnc(-n3nc(-c4ccccn4)nc3N)c2cc1OC
OUT: 111

IN: Supply reported cell viability belonging to this compound: CC/1=C/N([C@@H]2C[C@@H](O)[C@H](CO)O2)C(=O)NC1=O
OUT: 89

IN: Complete the entry with cell viability for Cc1cc2c(C(C)C)c(O)c(O)c(C=O)c2c(O)c1-c1c(C)cc2c(C(C)C)c(O)c(O)c(C=O)c2c1O
OUT: 135

IN: Give cell viability for CO/N=C(/C(=O)N[C@@H]1C(=O)N2C(C(=O)O)=C(Cn3ccc(=N)n3CCO)CS[C@H]12)c1csc(N)n1
OUT: 131

IN: Find the measured cell viability of O=C(Nc1ccc(OC(F)(F)F)cc1)c1sccc1NCc1ccnc2ccccc12 and report it.
OUT: 127

IN: Name the recorded cell viability of the compound listed here: COc1cc2c(N3CCN(C(=O)Nc4ccc(OC(C)C)cc4)CC3)ncnc2cc1OCCCN1CCCCC1
OUT: 85.9

====

System: P12-Ichikawa
Measurement Description: cell viability relative to DMSO control; higher = less cytotoxic
Settings: RPMI 5 mM glucose + 10% FBS; 48 h; 15.4 µM
Readout Type: cell viability (%)
Use % as the unit, but write only the number.

IN: Read off the recorded cell viability for C[C@@H]1C[C@H]2[C@@H]3\C=C(C)/C4=C/C5=C(C[C@]4(C)[C@H]3[C@@H](O)C[C@]2(C)[C@@]1(O)C(=O)COC(C)=O)C=N[N]5C6=CC=CC=C6
OUT: 46.5

IN: Query cell viability for Cc1ccc(C(C)(O)c2nc3ccccc3s2)c(C)c1 (stereo not given)
OUT: 51.2

IN: Note down cell viability recorded for COc1cc2nccc(Oc3ccc(NC(=O)Nc4ccc(F)cc4F)c(F)c3)c2cc1OC
OUT: 80.3

IN: Note cell viability for the compound shown: COc1cc2c(N3CCN(C(=O)Nc4ccc(OC(C)C)cc4)CC3)ncnc2cc1OCCCN1CCCCC1
OUT: 42.9

IN: Give a short answer stating reported cell viability for O=C1Nc2ccccc2/C1=C1\Nc2ccccc2C1=O .
OUT: 99.7

====

Test system: SEM cells
Measurement Description: cell viability relative to DMSO control; higher = less cytotoxic
Settings: HPLM + 10% dialyzed FBS; 48 h; 0.569 µM
Readout Type: cell viability (%)
// note: answer is a bare numeric in %

IN: Annotate the compound Nc1ccccc1NC(=O)c1ccc(CNc2nccc(-c3cccnc3)n2)cc1 with its measured cell viability.
OUT: 73.1

IN: Hello, please tell me recorded cell viability for this one: C[C@]\1(CCS\C(=N1)N)C2=CC(=C(F)C=C2F)C3=CN=CN=C3
OUT: 108

IN: Look up cell viability of COCCOC(=O)C/1=C(C)/NC/2=C(C1C3=CC=CC(=C3)O)/C(=O)CC(C2)C4=C(OC)C=CC=C4 (stereo unspecified) and report it.
OUT: 100

IN: Quote cell viability reported for CNC(=O)c1cccc(-c2ccc3c(N4CCOC[C@@H]4C)nc(N4CCOC[C@@H]4C)nc3n2)c1 please.
OUT: 62.6

IN: Please indicate cell viability recorded for C#CCN(C)[C@H](C)Cc1ccccc1
OUT: 93.1

IN: Give the reported value of cell viability for this record: O=C1Nc2ccccc2/C1=C1\Nc2ccccc2C1=O
OUT: 63.3

IN: Note down cell viability recorded for C1Cc2[nH]nc(-c3nn[nH]n3)c2C1
OUT: 128

IN: Quickly give me recorded cell viability for CN1[C@@H]2CCC[C@H]1C[C@@H](NC(=O)c1nn(C)c3ccccc13)C2.Cl
OUT: 124

IN: Name the recorded cell viability of the item Cc1[nH]c(/C=C2\C(=O)Nc3ccc([S+](=O)([O-])N(C)c4cccc(Cl)c4)cc32)c(C)c1C(=O)N1CCN(C)CC1 in your answer.
OUT: 114

IN: // fetch cell viability given entry COc1cc(N2CCC(C(N)=O)CC2)ccc1Nc1nc(N)c(Cl)c(Nc2ccccc2[S+](=O)([O-])C(C)C)n1
OUT: 97.6

IN: Item NC/1=N/C(=O)N/C=C1F : provide cell viability
OUT: 125

IN: Note down cell viability recorded for CN[C@H](CC(C)C)C(=O)N[C@H]1C(=O)N[C@@H](CC(N)=O)C(=O)N[C@H]2C(=O)N[C@H]3C(=O)N[C@H](C(=O)N[C@H](C(=O)O)c4cc(O)cc(O)c4-c4cc3ccc4O)[C@H](O)c3ccc(c(Cl)c3)Oc3cc2cc(c3O[C@@H]2O[C@H](CO)[C@@H](O)[C@H](O)[C@H]2O[C@H]2C[C@](C)(N)[C@H](O)[C@H](C)O2)Oc2ccc(cc2Cl)[C@H]1O
OUT: 128

IN: Query cell viability for O=C(Nc1ccc(OC(F)(F)F)cc1)c1sccc1NCc1ccnc2ccccc12
OUT: 122

IN: Return cell viability (reported value) for this compound: O=C1NC(=O)[C@@H](c2cn3c4c(cccc24)CCC3)[C@@H]1c1c[nH]c2ccccc12
OUT: 96.5

IN: Supply recorded cell viability for COC(=O)N1CCN(Cc2cccc(NC(=O)Nc3ccc(C)nc3)c2F)CC1 here.
OUT: 86.7

IN: Give the value of cell viability reported for the following: C[N]1C=NC=C1[C@@](N)(C2=CC=C(Cl)C=C2)C3=CC=C4N(C)C(=O)\C=C(\C5=CC=CC(=C5)Cl)C4=C3
OUT: 50.7

====

Tested on: P12-Ichikawa
Measurement Description: cell viability relative to DMSO control; higher = less cytotoxic
Settings: RPMI 5 mM glucose + 10% FBS; 48 h; 0.000781 µM
Readout Type: cell viability

IN: Identify measured cell viability corresponding to COCCOC(=O)C/1=C(C)/NC/2=C(C1C3=CC=CC(=C3)O)/C(=O)CC(C2)C4=C(OC)C=CC=C4 (stereo not drawn)
OUT: 103%

IN: Write down cell viability measured for item O=C1\C=C(/OC2=C1C=CC=C2C3=CC=CC=C3)N4CCOCC4
OUT: 89.1%

IN: Give cell viability for the following compound: COc1cc2ncnc(-n3nc(-c4ccccn4)nc3N)c2cc1OC
OUT: 89.2%

====

For each of the compounds below, state its cell viability.
System: P12-Ichikawa
Measurement Description: cell viability relative to DMSO control; higher = less cytotoxic
Settings: HPLM + 10% dialyzed FBS; 48 h; 0.569 µM
Quick note: give the figure in %, leave out the unit.

IN: For the compound Cc1[nH]c(/C=C2\C(=O)Nc3ccc([S+](=O)([O-])N(C)c4cccc(Cl)c4)cc32)c(C)c1C(=O)N1CCN(C)CC1 , report cell viability.
OUT: 119

IN: Tell us which cell viability value is on record for CCOC(=O)C/1=C(C)/NC(=S)NC1C2=CC=CC(=C2)O (stereo not given)
OUT: 9.07

IN: Using known records, supply cell viability for CNC(=O)c1ccc(Nc2ncc(C(F)(F)F)c(NCc3nccnc3N(C)[S+](C)(=O)[O-])n2)cc1
OUT: 122

IN: State, in one line, measured cell viability of CC#C[C@]1(O)CC[C@H]2[C@@H]/3CCC/4=C/C(=O)CCC4=C3[C@H](C[C@]12C)C5=CC=C(C=C5)N(C)C
OUT: 107

IN: State its cell viability for this compound: Clc1cccc(-c2nnnn2Cc2cccnc2)c1Cl
OUT: 77.9

====

Consider the following compounds; for each one, report its cell viability.
Test system: NOMO1
Measurement Description: cell viability relative to DMSO control; higher = less cytotoxic
Settings: HPLM + 10% dialyzed FBS; 48 h; 5.12 µM
Please respond with the number in % and leave the unit unwritten.

IN: Tell me cell viability reported for CCCCN(CCCC)CCC(O)c1cc2c(Cl)cc(Cl)cc2c2cc(C(F)(F)F)ccc12 (centres undefined)
OUT: 131

IN: Determine from records and report cell viability for CC/1=C/N([C@@H]2C[C@@H](O)[C@H](CO)O2)C(=O)NC1=O
OUT: 80.3

IN: Entry C[C@@H]1C[C@H]2[C@@H]3\C=C(C)/C4=C/C5=C(C[C@]4(C)[C@H]3[C@@H](O)C[C@]2(C)[C@@]1(O)C(=O)COC(C)=O)C=N[N]5C6=CC=CC=C6 needs its cell viability filled in; supply it.
OUT: 104

IN: Supply measured cell viability of O=C1NC(=O)[C@@H](c2cn3c4c(cccc24)CCC3)[C@@H]1c1c[nH]c2ccccc12 in your reply.
OUT: 29.7
